Biological target: T1, Ssa2 (yeast (S. cerevisiae), UniProt P10592 1-639)
T1 construct: Ssa2, yeast cytosolic Hsp70; non-tagged; also called Hsp70; source: E. coli Rosetta 2(DE3), purified as described [51]
T1 sequence (P10592 whole entry): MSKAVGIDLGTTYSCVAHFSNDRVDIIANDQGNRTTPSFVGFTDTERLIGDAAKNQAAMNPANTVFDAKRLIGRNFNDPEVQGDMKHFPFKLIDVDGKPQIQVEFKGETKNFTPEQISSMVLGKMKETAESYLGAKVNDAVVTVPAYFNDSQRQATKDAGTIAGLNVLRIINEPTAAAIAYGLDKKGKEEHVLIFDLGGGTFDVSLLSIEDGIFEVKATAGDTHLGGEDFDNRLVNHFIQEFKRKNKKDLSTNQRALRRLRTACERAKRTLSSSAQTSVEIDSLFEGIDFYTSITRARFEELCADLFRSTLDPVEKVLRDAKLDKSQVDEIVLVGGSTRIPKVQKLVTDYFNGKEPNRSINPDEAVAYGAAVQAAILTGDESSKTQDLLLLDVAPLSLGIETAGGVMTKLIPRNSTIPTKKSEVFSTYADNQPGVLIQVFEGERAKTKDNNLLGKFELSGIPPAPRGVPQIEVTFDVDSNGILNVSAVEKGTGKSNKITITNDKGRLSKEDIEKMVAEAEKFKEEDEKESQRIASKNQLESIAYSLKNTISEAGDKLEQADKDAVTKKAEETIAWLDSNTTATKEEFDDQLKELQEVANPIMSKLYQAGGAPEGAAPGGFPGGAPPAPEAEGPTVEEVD
Assay: pull-down; His6-Fbp1 (wild type or mutant) pulled down on Talon metal affinity resin; reactions with two or all three proteins; 6 μg each of His6-Fbp1 (1.6 μM), Hsp70 (0.9 μM) and GST-Fes1 (1.09 μM), with or without ATP, ADP or AMP (2.5 mM); 50 mM Tris-HCl pH 7.5, 150 mM NaCl, 2% glycerol, 5 mM MgCl2; 30 min at 4°C; washed with 5 mM imidazole, eluted with 250 mM imidazole; stained SDS-PAGE gels, bands quantified …
Details: both partners purified
measured parameter: binding result

Which measured binding result value corresponds to His6-Fbp1 P2A (enzyme, yeast (S. cerevisiae), UniProt P09201 1-348, looked up, Fbp1, yeast gluconeogenic enzyme, P2A; the initiator methionine is counted as residue 1; source: E. coli expression, purified; not shown: His6, N-terminal, kept) MATLVNGPRRDSTEGFDTDIITLPRFIIEHQKQFKNATGDFTLVLNALQFAFKFVSHTIRRAELVNLVGLAGASNFTGDQQKKLDVLGDEIFINAMRASGIIKVLVSEEQEDLIVFPTNTGSYAVCCDPIDGSSNLDAGVSVGTIASIFRLLPDSSGTINDVLRCGKEMVAACYAMYGSSTHLVLTLGDGVDGFTLDTNLGEFILTHPNLRIPPQKAIYSINEGNTLYWNETIRTFIEKVKQPQADNNNKPFSARYVGSMVADVHRTFLYGGLFAYPCDKKSPNGKLRLLYEAFPMAFLMEQAGGKAVNDRGERILDLVPSHIHDKSSIWLGSSGEIDKFLDHIGKSQ ?
binds

Another binder to look at: His6-Fbp1 (enzyme, yeast (S. cerevisiae), UniProt P09201 1-348, looked up, Fbp1, yeast gluconeogenic enzyme; the initiator methionine is present in the purified protein and is counted as residue 1; also called wild type His6-Fbp1; not shown: His6, N-terminal, kept) MPTLVNGPRRDSTEGFDTDIITLPRFIIEHQKQFKNATGDFTLVLNALQFAFKFVSHTIRRAELVNLVGLAGASNFTGDQQKKLDVLGDEIFINAMRASGIIKVLVSEEQEDLIVFPTNTGSYAVCCDPIDGSSNLDAGVSVGTIASIFRLLPDSSGTINDVLRCGKEMVAACYAMYGSSTHLVLTLGDGVDGFTLDTNLGEFILTHPNLRIPPQKAIYSINEGNTLYWNETIRTFIEKVKQPQADNNNKPFSARYVGSMVADVHRTFLYGGLFAYPCDKKSPNGKLRLLYEAFPMAFLMEQAGGKAVNDRGERILDLVPSHIHDKSSIWLGSSGEIDKFLDHIGKSQ
binds
